Molecular target: human RORγt ligand binding domain (RORγt LBD) (Homo sapiens (Human), UniProt P51449)
Sequence (P51449 other isoform, or with tags, fused parts or gaps): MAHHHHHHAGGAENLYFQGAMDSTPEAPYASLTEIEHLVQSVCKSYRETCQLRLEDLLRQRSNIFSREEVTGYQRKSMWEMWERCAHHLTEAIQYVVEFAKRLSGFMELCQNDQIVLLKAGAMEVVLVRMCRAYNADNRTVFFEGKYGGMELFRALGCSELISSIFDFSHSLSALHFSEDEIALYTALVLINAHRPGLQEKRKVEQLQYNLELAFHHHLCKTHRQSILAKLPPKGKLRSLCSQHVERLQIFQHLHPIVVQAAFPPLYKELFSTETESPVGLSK
Assay: RORγt ThermoFluor® assay (thermal shift binding)
Details: read-out: ThermoFluor® Assay, Kd
pKd: −log10 of the molar value.
Overview of recorded pKd for various compounds
Value Type: pKd

{"Compound": "COCCn1nc(C(=O)NC[C@H]2CC[C@H](S(C)(=O)=O)CC2)c(Cl)c1-c1ccc(CC(C)(C)C(F)(F)F)cc1OC(F)F [Example 148]", "Value Type": "pKd", "Val": 9.80}
{"Compound": "CCn1nc(C(=O)NC[C@]2(O)CC[C@@H](S(C)(=O)=O)CC2)c(C(F)(F)F)c1-c1ccc(N[C@H](C)C(F)(F)F)cc1OC [Example 217]", "Value Type": "pKd", "Val": 7.77}
{"Compound": "CCn1nc(C(=O)NC[C@]2(O)CC[C@@H](S(N)(=O)=O)CC2)c(Cl)c1-c1ccc(CC(C)(C)C(F)(F)F)cc1OC(F)F [Example 62]", "Value Type": "pKd", "Val": 9.11}
{"Compound": "CCn1nc(C(=O)NC[C@H]2CC[C@H](S(C)(=O)=O)CC2)c(Cl)c1-c1ccc(CC(C)(C)C(F)(F)F)cc1OC(F)F [Example 2]", "Value Type": "pKd", "Val": 9.80}
{"Compound": "CCS(=O)(=O)[C@H]1CC[C@H](CNC(=O)c2nn(C)c(-c3ccc(CC(C)(C)C(F)(F)F)cc3OC(F)F)c2Cl)CC1 [Example 156]", "Value Type": "pKd", "Val": 8.82}
{"Compound": "CCn1nc(C(=O)NC[C@]2(O)CC[C@@H](S(C)(=O)=O)CC2)c(Cl)c1-c1ccc(CC(C)C)cc1OC [Example 73]", "Value Type": "pKd", "Val": 9.20}
